This listing pairs binders with measured THP1 (endogenous RXFP1) cAMP EC50.
Target: T1, human RXFP1 (human, UniProt Q9HBX9 1-757)
T1 sequence (looked up): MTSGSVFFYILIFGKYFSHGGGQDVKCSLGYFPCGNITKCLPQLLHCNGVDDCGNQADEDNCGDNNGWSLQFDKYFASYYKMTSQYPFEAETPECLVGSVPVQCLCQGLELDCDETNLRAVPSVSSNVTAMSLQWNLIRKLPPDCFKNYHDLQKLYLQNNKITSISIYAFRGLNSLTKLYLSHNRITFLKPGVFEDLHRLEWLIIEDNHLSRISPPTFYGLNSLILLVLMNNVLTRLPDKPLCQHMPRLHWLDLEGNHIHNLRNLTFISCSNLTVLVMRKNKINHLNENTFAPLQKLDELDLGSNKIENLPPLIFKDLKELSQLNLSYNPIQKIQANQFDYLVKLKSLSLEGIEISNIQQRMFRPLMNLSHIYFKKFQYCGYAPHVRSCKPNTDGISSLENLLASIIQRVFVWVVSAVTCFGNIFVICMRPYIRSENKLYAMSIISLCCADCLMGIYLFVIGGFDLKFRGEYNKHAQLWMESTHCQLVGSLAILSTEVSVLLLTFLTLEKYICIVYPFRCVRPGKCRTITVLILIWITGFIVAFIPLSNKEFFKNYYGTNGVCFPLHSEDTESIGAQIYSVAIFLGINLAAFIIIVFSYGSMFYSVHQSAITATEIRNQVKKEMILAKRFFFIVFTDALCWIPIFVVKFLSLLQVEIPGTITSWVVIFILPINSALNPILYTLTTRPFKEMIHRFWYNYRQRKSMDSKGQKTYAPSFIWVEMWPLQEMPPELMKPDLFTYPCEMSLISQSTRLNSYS
Assay: cell-based or functional assay
# unit: nM | format: bare number

Past entries and their recorded results:
- Wild-type human relaxin-2 (ligand) chain 1: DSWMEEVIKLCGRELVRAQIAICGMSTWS chain 2: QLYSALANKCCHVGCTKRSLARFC: 0.2
- SEQ ID NO: 91 (Fc fusion) DKTHTCPPCPAPEAAGGPSVFLFPPKPKDTLMISRTPEVTCVVVDVSHEDPEVKFNWYVDGVEVHNAKTKPREEQYNSTYRVVSVLTVLHQDWLNGKEYKCKVSNKALAAPIEKTISKAKGQPREPQVYTLPPSRDELTKNQVSLTCLVKGFYPSDIAVEWESNGQPENNYKTTPPVLDSDGSFFLYSKLTVDKSRWQQGNVFSCSVLHEALHSHYTQKSLSLSPGEGGSDSWQEEVIKLCGRELVRAQIAICGKSTASDAAGADANAGARQLYSALANKCCHVGCTKRSLAQFC: 30

Please examine the following record next.
**Query** Please report the recorded THP1 (endogenous RXFP1) cAMP EC50 for SEQ ID NO: 98 (Fc fusion) DKTHTCPPCPAPEAAGGPSVFLFPPKPKDTLMISRTPEVTCVVVDVSHEDPEVKFNWYVDGVEVHNAKTKPREEQYNSTYRVVSVLTVLHQDWLNGKEYKCKVSNKALAAPIEKTISKAKGQPREPQVYTLPPSRDELTKNQVSLTCLVKGFYPSDIAVEWESNGQPENNYKTTPPVLDSDGSFFLYSKLTVDKSRWQQGNVFSCSVLHEALHSHYTQKSLSLSPGEGGSDSWQEEVIKLCGRELVRAQIAICGQSTASDAAGADANAGARQLYSALANKCCHVGCTKRSLAQFC .
**Result** 100
